Catalogue of compounds with associated Relative Activity
Target: Gallus N-acetyl-α-D-galactosaminidase (Gallus gallus, UniProt Q90744)
Construct: the cDNA clone corresponds to the region of the mRNA encoding the mature polypeptide for the chicken α-N-acetyl-galactosaminidase; from tissue; host or cells: chicken liver
Sequence (Q90744 1-405 S162A): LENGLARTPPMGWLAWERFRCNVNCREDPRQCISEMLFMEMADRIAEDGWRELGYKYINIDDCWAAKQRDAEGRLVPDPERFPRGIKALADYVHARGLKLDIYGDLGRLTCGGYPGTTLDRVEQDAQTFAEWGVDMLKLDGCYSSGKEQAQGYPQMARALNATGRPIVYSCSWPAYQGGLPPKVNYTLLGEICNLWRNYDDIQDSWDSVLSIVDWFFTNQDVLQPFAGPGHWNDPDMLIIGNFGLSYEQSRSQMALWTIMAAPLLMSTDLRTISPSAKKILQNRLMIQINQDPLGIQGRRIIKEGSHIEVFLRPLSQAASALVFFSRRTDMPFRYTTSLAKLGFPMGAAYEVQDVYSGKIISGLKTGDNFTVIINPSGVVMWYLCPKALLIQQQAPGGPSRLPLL
Test: Substrate specificity (relative activity)
Type: biochemical, Gallus domesticus
Conditions: Table VI, improved purification (Example 2); % of enzyme activity on the corresponding conjugate; 2.5 mM PNP conjugates, pH 3.5

// solved cases for Relative Activity follow
- COMPOUND: "CC(=O)N[C@H]1[C@H](Oc2ccc([N+](=O)[O-])cc2)O[C@H](CO)[C@H](O)[C@@H]1O [PNP-N-acetyl-β-D-galactosaminide]"
  MEASUREMENT: "< 0.08%"
- COMPOUND: "O=[N+]([O-])c1ccc(O[C@H]2O[C@H](CO)[C@@H](O)[C@H](O)[C@H]2O)cc1 [PNP-α-D-glucopyranoside]"
  MEASUREMENT: "< 0.08%"

Pending compound:
Look up Gallus N-acetyl-α-D-galactosaminidase (Gallus gallus, UniProt Q90744) data: Relative Activity of CC(=O)N[C@H]1[C@@H](Oc2ccc([N+](=O)[O-])cc2)O[C@H](CO)[C@H](O)[C@@H]1O [PNP-N-acetyl-α-D-galactosaminide] , then report it.
100.00%

====

Molecular target: Gallus N-acetyl-α-D-galactosaminidase (Gallus gallus, UniProt Q90744)
Construct: the cDNA clone corresponds to the region of the mRNA encoding the mature polypeptide for the chicken α-N-acetyl-galactosaminidase; from tissue; host or cells: chicken liver
Sequence (Q90744 1-405 S162A): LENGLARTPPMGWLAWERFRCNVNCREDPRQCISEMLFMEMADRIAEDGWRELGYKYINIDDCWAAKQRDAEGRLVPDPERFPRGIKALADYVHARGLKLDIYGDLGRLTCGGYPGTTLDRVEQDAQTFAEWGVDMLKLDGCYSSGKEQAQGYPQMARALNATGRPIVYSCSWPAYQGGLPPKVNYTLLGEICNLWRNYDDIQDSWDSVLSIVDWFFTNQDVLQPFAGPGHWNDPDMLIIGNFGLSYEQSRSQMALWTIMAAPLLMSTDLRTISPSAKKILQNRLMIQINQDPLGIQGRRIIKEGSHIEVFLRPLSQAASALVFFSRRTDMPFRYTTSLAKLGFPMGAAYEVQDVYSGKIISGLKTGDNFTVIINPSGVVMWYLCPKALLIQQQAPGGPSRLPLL
Assay: Substrate specificity (relative activity)
Format: biochemical, Gallus domesticus
Details: Table IV, Example 1 preparation; % of enzyme activity on the corresponding conjugate; 2.5 mM PNP conjugates, pH 3.5
Catalogue of compounds with associated Relative Activity

// solved cases for Relative Activity follow
- COMPOUND: "CC(=O)N[C@H]1[C@@H](Oc2ccc([N+](=O)[O-])cc2)O[C@H](CO)[C@H](O)[C@@H]1O [PNP-N-acetyl-α-D-galactosaminide]"
  Relative Activity: "100.00%"
- COMPOUND: "O=[N+]([O-])c1ccc(O[C@@H]2O[C@H](CO)[C@H](O)[C@H](O)[C@H]2O)cc1 [PNP-β-D-galactopyranoside]"
  Relative Activity: "< 0.08%"
- COMPOUND: "CC(=O)N[C@H]1[C@H](Oc2ccc([N+](=O)[O-])cc2)O[C@H](CO)[C@@H](O)[C@@H]1O [PNP-N-acetyl-β-D-glucosaminide]"
  Relative Activity: "< 0.08%"
- COMPOUND: "O=[N+]([O-])c1ccc(O[C@@H]2OC[C@H](O)[C@H](O)[C@H]2O)cc1 [PNP-α-L-arabinopyranoside]"
  Relative Activity: "< 0.08%"
- COMPOUND: "CC(=O)N[C@H]1[C@@H](Oc2ccc([N+](=O)[O-])cc2)O[C@H](CO)[C@@H](O)[C@@H]1O [PNP-N-acetyl-α-D-glucosaminide]"
  Relative Activity: "< 0.08%"
- COMPOUND: "C[C@@H]1O[C@@H](Oc2ccc([N+](=O)[O-])cc2)[C@@H](O)[C@H](O)[C@@H]1O [PNP-α-L-fucopyranoside]"
  Relative Activity: "< 0.08%"
- COMPOUND: "Cc1cc(=O)oc2cc(O[C@H]3O[C@H](CO)[C@H](O)[C@H](O)[C@H]3O)ccc12 [4-MU-α-D-galactopyranoside]"
  Relative Activity: "100.00%"
- COMPOUND: "CC(=O)N[C@H]1[C@H](Oc2ccc([N+](=O)[O-])cc2)O[C@H](CO)[C@H](O)[C@@H]1O [PNP-N-acetyl-β-D-galactosaminide]"
  Relative Activity: "< 0.08%"
- COMPOUND: "O=[N+]([O-])c1ccc(O[C@H]2O[C@H](CO)[C@H](O)[C@H](O)[C@H]2O)cc1 [PNP-α-D-galactopyranoside]"
  Relative Activity: "12.74%"
- COMPOUND: "O=[N+]([O-])c1ccc(O[C@@H]2O[C@H](CO)[C@@H](O)[C@H](O)[C@H]2O)cc1 [PNP-β-D-glucopyranoside]"
  Relative Activity: "< 0.08%"

Provide Relative Activity value for the following compound: C[C@@H]1O[C@H](Oc2ccc([N+](=O)[O-])cc2)[C@@H](O)[C@H](O)[C@@H]1O [PNP-β-L-fucopyranoside]
< 0.08%

Provide Relative Activity value for the following compound: O=[N+]([O-])c1ccc(O[C@H]2O[C@H](CO)[C@@H](O)[C@H](O)[C@H]2O)cc1 [PNP-α-D-glucopyranoside]
< 0.08%

Provide Relative Activity value for the following compound: CC(=O)NC1C(O)CC(Oc2ccc3c(C)cc(=O)oc3c2)(C(=O)O)OC1C(O)C(O)CO (stereo not shown)
< 0.01%

====

Target: Gallus N-acetyl-α-D-galactosaminidase (Gallus gallus, UniProt Q90744)
Construct: the cDNA clone corresponds to the region of the mRNA encoding the mature polypeptide for the chicken α-N-acetyl-galactosaminidase; from tissue; host or cells: chicken liver
Sequence (Q90744 1-405 S162A): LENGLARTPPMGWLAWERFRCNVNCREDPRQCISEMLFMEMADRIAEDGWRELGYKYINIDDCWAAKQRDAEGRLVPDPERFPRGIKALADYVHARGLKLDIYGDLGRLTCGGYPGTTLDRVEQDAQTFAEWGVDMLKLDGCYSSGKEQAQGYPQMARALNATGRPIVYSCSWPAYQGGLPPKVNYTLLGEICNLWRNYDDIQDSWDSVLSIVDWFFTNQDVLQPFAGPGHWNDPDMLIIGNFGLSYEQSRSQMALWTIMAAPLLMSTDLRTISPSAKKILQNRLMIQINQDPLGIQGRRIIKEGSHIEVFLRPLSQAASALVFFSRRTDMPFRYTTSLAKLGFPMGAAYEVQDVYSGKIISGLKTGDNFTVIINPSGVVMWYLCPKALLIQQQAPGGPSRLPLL
Experiment: Substrate specificity (relative activity)
Format: biochemical, Gallus domesticus
Conditions: Table VI, improved purification (Example 2); % of enzyme activity on the corresponding conjugate; 2.5 mM PNP conjugates, pH 3.5
Catalogue of compounds with associated Relative Activity

Provide Relative Activity value for the following compound: O=[N+]([O-])c1ccc(O[C@H]2O[C@H](CO)[C@H](O)[C@H](O)[C@H]2O)cc1 [PNP-α-D-galactopyranoside]
15.79%

Provide Relative Activity value for the following compound: CC(=O)NC1C(O)CC(Oc2ccc3c(C)cc(=O)oc3c2)(C(=O)O)OC1C(O)C(O)CO (stereo not drawn) [4-MU-N-acetyl-α-neuraminic acid]
< 0.01%

Provide Relative Activity value for the following compound: CC(=O)N[C@H]1[C@H](Oc2ccc([N+](=O)[O-])cc2)O[C@H](CO)[C@@H](O)[C@@H]1O [PNP-N-acetyl-β-D-glucosaminide]
< 0.08%

====

Catalogue of molecules with associated Relative Activity
Molecular target: Gallus N-acetyl-α-D-galactosaminidase (Gallus gallus, UniProt Q90744)
Construct: the cDNA clone corresponds to the region of the mRNA encoding the mature polypeptide for the chicken α-N-acetyl-galactosaminidase; from tissue; host or cells: chicken liver
Sequence (Q90744 1-405 S162A): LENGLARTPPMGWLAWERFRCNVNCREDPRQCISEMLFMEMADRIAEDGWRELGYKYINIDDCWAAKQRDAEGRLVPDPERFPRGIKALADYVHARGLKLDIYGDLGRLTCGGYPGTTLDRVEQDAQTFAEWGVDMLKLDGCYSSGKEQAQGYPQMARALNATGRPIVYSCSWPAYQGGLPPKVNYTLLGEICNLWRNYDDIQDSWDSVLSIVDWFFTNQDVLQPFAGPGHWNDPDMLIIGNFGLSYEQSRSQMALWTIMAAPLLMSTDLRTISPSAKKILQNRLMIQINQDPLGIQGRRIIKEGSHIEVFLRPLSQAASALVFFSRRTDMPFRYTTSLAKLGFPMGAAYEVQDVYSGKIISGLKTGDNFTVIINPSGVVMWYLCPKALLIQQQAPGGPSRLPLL
Assay: Substrate specificity (relative activity)
Assay type: biochemical, Gallus domesticus
Conditions: Table VI, improved purification (Example 2); % of enzyme activity on the corresponding conjugate; 2.5 mM PNP conjugates, pH 3.5

// solved cases for Relative Activity follow
- MOLECULE: "C[C@@H]1O[C@@H](Oc2ccc([N+](=O)[O-])cc2)[C@@H](O)[C@H](O)[C@@H]1O [PNP-α-L-fucopyranoside]"
  MEASUREMENT: "< 0.08%"
- MOLECULE: "O=[N+]([O-])c1ccc(O[C@@H]2OC[C@H](O)[C@H](O)[C@H]2O)cc1 [PNP-α-L-arabinopyranoside]"
  MEASUREMENT: "< 0.08%"

Pending molecule:
Look up Gallus N-acetyl-α-D-galactosaminidase (Gallus gallus, UniProt Q90744) data: Relative Activity of CC(=O)N[C@H]1[C@@H](Oc2ccc([N+](=O)[O-])cc2)O[C@H](CO)[C@@H](O)[C@@H]1O [PNP-N-acetyl-α-D-glucosaminide] , then report it.
< 0.08%
